Reference for the values: patent US12600726B2

study-system: Human M4 (Homo sapiens, UniProt P08173)
Construct: expressed in transfected cells; host or cells: CHO-K1 (ATCC), stably expressing M4 and Gqi5
Sequence (P08173 whole entry): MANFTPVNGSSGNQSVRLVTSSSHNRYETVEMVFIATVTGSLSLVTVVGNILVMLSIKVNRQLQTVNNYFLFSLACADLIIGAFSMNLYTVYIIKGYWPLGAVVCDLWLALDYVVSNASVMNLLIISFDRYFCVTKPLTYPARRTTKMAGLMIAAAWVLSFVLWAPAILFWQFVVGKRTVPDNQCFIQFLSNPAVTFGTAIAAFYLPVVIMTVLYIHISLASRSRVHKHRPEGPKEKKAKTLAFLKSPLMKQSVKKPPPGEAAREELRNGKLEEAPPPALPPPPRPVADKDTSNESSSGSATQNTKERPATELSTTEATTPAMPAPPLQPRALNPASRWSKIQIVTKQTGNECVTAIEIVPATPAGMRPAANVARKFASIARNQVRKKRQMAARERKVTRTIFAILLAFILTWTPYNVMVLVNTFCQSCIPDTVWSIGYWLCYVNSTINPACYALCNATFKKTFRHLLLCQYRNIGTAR
experiment-notes: mAChR M4 cell-based functional calcium flux assay (human M4/Gqi5/CHO cells)
condition-context: % ACh maximum at 30 μM
measured-metric: Emin (human M4) (%)
Numbers only; they are read as %.

// solved cases for Emin (human M4) follow
{"molecule": "Cc1cnn(C)c1-c1ccc(NC(=O)C2CC23CCN(CCC(C)(C)C)CC3)nn1 (centres unmarked) [Compound 5]", "unit-text": "%", "recorded-number": 5.53}
{"molecule": "CC(C)(C)CCN1CCC2(CC1)CC2CNc1ccc(-c2ccccc2OC(F)(F)F)nn1 (centres unmarked) [Compound 48]", "unit-text": "%", "recorded-number": 2.63}
{"molecule": "CC(=O)Nc1ccc(-c2ccc(NC[C@@H]3CC34CCN(Cc3ccc(F)cc3)CC4)nn2)cc1 [Compound 123]", "unit-text": "%", "recorded-number": 5}

# input Provide only the value of recorded Emin (human M4) for Cc1nn(C)cc1-c1ccc(NCC2CC23CCN(CC2CCOCC2)CC3)nn1 (centres unmarked) [Compound 61]
# output 3.54

# input Provide only the value of recorded Emin (human M4) for CC(C)(C)CCN1CCC2(CC1)CC2CNc1ccc(-c2cnccc2C(F)(F)F)nn1 (centres unmarked) [Compound 49]
# output 2.64

# input Provide only the value of recorded Emin (human M4) for Cc1nn(C)cc1-c1ccc(NCC2CC23CCN(CC2CC4C=CC2C4)CC3)nc1 (centres unmarked) [Compound 70]
# output 3.29

# input Provide only the value of recorded Emin (human M4) for c1cc(N2CCOCC2)nnc1NCC1CC12CCN(CC13CC4CC(CC(C4)C1)C3)CC2 (centres unmarked) [Compound 84]
# output 5

# input Provide only the value of recorded Emin (human M4) for CC(C)(C)CCN1CCC2(CC1)CC2CNc1ccc(Cl)nn1 (centres unmarked) [Compound 20]
# output 3.47
